Target: ~100 representative kinases (Homo sapiens)
Construct: Recombinant protein kinase domains with a concentration of 2 μM
Sequence (O75385 1-1050): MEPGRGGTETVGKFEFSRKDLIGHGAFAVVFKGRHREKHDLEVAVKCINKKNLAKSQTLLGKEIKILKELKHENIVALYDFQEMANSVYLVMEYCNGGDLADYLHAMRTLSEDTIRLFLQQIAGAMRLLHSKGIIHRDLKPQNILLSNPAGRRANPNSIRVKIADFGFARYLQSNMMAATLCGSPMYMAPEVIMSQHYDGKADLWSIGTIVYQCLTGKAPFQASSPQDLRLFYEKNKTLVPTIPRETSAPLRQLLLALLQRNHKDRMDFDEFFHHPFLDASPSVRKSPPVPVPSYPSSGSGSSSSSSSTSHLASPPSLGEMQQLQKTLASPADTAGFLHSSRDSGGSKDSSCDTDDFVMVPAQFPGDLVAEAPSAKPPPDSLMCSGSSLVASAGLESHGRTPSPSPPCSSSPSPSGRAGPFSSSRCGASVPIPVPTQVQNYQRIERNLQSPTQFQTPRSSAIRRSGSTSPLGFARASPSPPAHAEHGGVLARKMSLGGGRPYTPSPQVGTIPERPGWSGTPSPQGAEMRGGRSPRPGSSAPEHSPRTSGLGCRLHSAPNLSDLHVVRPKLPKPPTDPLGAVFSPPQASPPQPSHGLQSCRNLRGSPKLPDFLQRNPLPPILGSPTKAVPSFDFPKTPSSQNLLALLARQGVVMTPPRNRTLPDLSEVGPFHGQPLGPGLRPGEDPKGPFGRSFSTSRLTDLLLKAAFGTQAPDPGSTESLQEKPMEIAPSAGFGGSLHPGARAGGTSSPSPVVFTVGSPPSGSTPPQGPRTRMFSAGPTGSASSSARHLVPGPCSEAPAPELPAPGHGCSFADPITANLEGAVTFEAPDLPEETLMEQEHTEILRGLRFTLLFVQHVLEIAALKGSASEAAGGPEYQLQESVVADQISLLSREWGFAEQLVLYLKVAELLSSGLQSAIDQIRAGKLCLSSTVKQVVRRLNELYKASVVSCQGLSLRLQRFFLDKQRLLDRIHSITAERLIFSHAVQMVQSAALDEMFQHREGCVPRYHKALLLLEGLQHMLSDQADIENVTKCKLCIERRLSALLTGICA
Experiment: DSF 100 kinase selectivity screen;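 note: compound tested at 20 µM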
Type: binding
Conditions: Protein ULK1; DSF; average of three replicates
Listed next: entries and their corresponding dTm.
Report the figure in K without appending any unit label.

compound | target | result units | dTm
CN[C@@H]1C[C@H]2O[C@@](C)([C@@H]1OC)n1c3ccccc3c3c4c(c5c6ccccc6n2c5c31)C(=O)NC4 | ~100 representative kinases (Homo sapiens) | K | 14.02

So for O=C(Nc1cccc(-c2c[nH]c3ncnc(N4CCOCC4)c23)c1)C1(C(=O)Nc2ccc(F)c(Br)c2)CC1 , the logged dTm turned out to be 12.52

Record CC(=O)N1CCN(c2nc(Cl)nc3[nH]cc(-c4cccc(NC(=O)Nc5cc(C(C)(C)C)nn5-c5ccc(C)cc5)c4)c23)CC1 , field dTm: 2.80

----------
biological target: ~100 representative kinases (Homo sapiens, UniProt O15264); construct: Recombinant protein kinase domains with a concentration of 2 μM; assay: DSF 100 kinase selectivity screen; assay type: binding; conditions: protein MAPK13; average of three replicates;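 note: compound tested at 20 µM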
Sequence (O15264 whole entry, the tested form may be a part): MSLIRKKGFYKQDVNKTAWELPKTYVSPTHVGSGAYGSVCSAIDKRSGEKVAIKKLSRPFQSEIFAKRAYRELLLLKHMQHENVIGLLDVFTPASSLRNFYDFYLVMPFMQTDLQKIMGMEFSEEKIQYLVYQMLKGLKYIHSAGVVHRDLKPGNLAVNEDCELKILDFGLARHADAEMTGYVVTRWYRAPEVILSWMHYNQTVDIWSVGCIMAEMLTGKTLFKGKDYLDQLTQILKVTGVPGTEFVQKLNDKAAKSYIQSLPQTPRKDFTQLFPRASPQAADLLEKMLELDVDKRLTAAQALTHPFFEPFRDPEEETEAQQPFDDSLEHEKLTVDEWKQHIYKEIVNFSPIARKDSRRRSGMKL
Listing: dTm of selected compounds
The response must be a number in K with no trailing unit.

Record excerpt, results attached:
compound | target | result units | dTm
COc1cc2c(Oc3ccc(NC(=O)C4(C(=O)Nc5ccc(F)cc5)CC4)cc3F)ccnc2cc1OCCCN1CCOCC1 [Foretinib, reference compound] | ~100 representative kinases (Homo sapiens, UniProt O15264) | K | 9.64
COc1cc(C(=O)N2CCOCC2)c(F)cc1Nc1nc(N(C)C)c2c(Cl)c[nH]c2n1 [Compound 36] | ~100 representative kinases (Homo sapiens, UniProt O15264) | K | 0.85
COc1ccc(NC(=O)C2(C(=O)Nc3cccc(-c4c[nH]c5ncnc(N6CCOCC6)c45)c3)CC2)cc1 [Compound 16] | ~100 representative kinases (Homo sapiens, UniProt O15264) | K | 5.41
Cc1ccc(C(=O)Nc2ccc(CN3CCN(C)CC3)c(C(F)(F)F)c2)cc1C#Cc1cnc2[nH]ncc2c1 [GZD-824, reference compound] | ~100 representative kinases (Homo sapiens, UniProt O15264) | K | 6.08
Cc1cc(NC(=O)C2(C(=O)Nc3ccc(F)cc3)CC2)cc(-c2c[nH]c3ncnc(N4CCOCC4)c23)c1 [Compound 6] | ~100 representative kinases (Homo sapiens, UniProt O15264) | K | 7.75
O=C(Nc1cccc(-c2c[nH]c3ncnc(N4CCOCC4)c23)c1)C1(C(=O)Nc2cc(Br)c(F)cc2F)CC1 [Compound 25] | ~100 representative kinases (Homo sapiens, UniProt O15264) | K | 1.39

compound O=C(Nc1cccc(-c2c[nH]c3ncnc(N4CCOCC4)c23)c1)C1(C(=O)Nc2ccc(F)c(Br)c2F)CC1 [Compound 26] , dTm observed: 4.55

----------
log10(dTm) by entry:
target: ~100 representative kinases (Homo sapiens); construct: Recombinant protein kinase domains with a concentration of 2 μM; experiment: DSF 100 kinase selectivity screen; type: binding; conditions: protein HIPK2; average of three replicates;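 note: compound tested at 20 µM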
The common logarithm of dTm in K is what is listed.

smiles str | recorded value
Cc1cc(NC(=O)C2(C(=O)Nc3cccc(-c4c[nH]c5ncnc(N6CCOCC6)c45)c3)CC2)ccc1F | 1.06
CCSc1nc(NC)c2c(-c3cccc(NC(=O)Nc4cc(C(C)(C)C)nn4-c4ccc(C)cc4)c3)c[nH]c2n1 | -0.51
COc1cc(NC(=O)C2(C(=O)Nc3cccc(-c4c[nH]c5ncnc(N6CCOCC6)c45)c3)CC2)ccc1F | 0.96
O=C(Nc1cccc(-c2c[nH]c3ncnc(N4CCOCC4)c23)c1)C1(C(=O)Nc2ccc(F)c(Cl)c2)CC1 | 1.03
O=C(Nc1cccc(-c2c[nH]c3ncnc(N4CCOCC4)c23)c1)C1(C(=O)Nc2cc(Br)c(F)cc2F)CC1 | 0.23
Cc1ccc(C(=O)Nc2ccc(CN3CCN(C)CC3)c(C(F)(F)F)c2)cc1C#Cc1c[nH]c2ncnc(N3CCOCC3)c12 | 0.63
COc1ccc(NC(=O)C2(C(=O)Nc3cccc(-c4c[nH]c5ncnc(N6CCOCC6)c45)c3)CC2)cc1 | 0.78

Now turn to the next compound.
Short answer for Cc1ccc(-n2nc(C(C)(C)C)cc2NC(=O)Nc2cccc(-c3c[nH]c4ncnc(N5CCOCC5)c34)c2)cc1 : log10(dTm) was 0.97

----------
Biological target: ~100 representative kinases (Homo sapiens)
Construct: Recombinant protein kinase domains with a concentration of 2 μM
Assay: DSF 100 kinase selectivity screen;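 note: compound tested at 20 µM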
Type: binding
Details: protein PIM3; average of three replicates
Protocol: Recombinant protein kinase domains with a concentration of 2 μM were mixed with a 20 μM compound solution in dimethyl sulfoxide (DMSO), 20 mM Hepes (pH 7.5), and 500 mM NaCl. SYPRO Orange (5000×, Invitrogen) was added as a fluorescence probe (1μl/ml). Subsequently, temperature-dependent protein unfolding profiles were measured using the QuantStudio 5 realtime PCR machine (Thermo Fisher Scientific, Waltham, MA, USA). […] The temperature was raised with a step rate of 3°C/min. […]
recorded metric: dTm

// solved cases for dTm follow
smiles str | dTm
C[C@@H]1CN(c2cc(-c3n[nH]c4ccc(OC5(C)CC5)cc34)ncn2)C[C@H](C)O1 | 0.23 K
CCc1ccc(NC(=O)C2(C(=O)Nc3cccc(-c4c[nH]c5ncnc(N6CCOCC6)c45)c3)CC2)cc1 | 1.24 K
O=C(Nc1cc(F)cc(Br)c1)C1(C(=O)Nc2cccc(-c3c[nH]c4ncnc(N5CCOCC5)c34)c2)CC1 | -0.05 K
Cn1cc(-c2c[nH]c3ncnc(N4CCOCC4)c23)cc1C#N | 0.58 K
Cc1ccc(NC(=O)C2(C(=O)Nc3cccc(-c4c[nH]c5ncnc(N6CCOCC6)c45)c3)CC2)cc1 | 0.71 K
Cc1ccc(-n2nc(C(C)(C)C)cc2NC(=O)Nc2cccc(-c3c[nH]c4ncnc(N5CCOCC5)c34)c2)cc1 | 0.33 K
Cc1ccc(C(=O)Nc2ccc(CN3CCN(C)CC3)c(C(F)(F)F)c2)cc1C#Cc1c[nH]c2ncnc(N3CCOCC3)c12 | 2.19 K
O=C(Nc1cccc(-c2c[nH]c3ncnc(N4CCOCC4)c23)c1)c1cccn(-c2ccc(F)cc2)c1=O | 0.41 K

Reported dTm ( COc1cc(S(C)(=O)=O)ccc1Nc1nc(N(C)C)c2c(Cl)c[nH]c2n1 ) = 0.48 K

Record summary for CN[C@@H]1C[C@H]2O[C@@](C)([C@@H]1OC)n1c3ccccc3c3c4c(c5c6ccccc6n2c5c31)C(=O)NC4 : reported dTm = 16.71 K
